The reported numbers originate from patent US20230322767A1.

Documented IC50 across a set of molecules
biological target: wild-type Epidermal Growth Factor Receptor (EGFR) (Homo sapiens (Human)); experiment: WT-EGFR Kinase Assay (TR-FRET, 2 mM ATP); format: biochemical; conditions: EGFR Wildtyp 2 mM ATP IC50 [mol/l] (median), median or individual measurements

Molecule: Cc1c(-c2ccnc(NC(=O)C(C)c3ccc(F)cc3)c2)[nH]c2ccn(C)c(=O)c12 (racemic)
Assayed system: wild-type Epidermal Growth Factor Receptor (EGFR) (Homo sapiens (Human))
Endpoint value: > 20 µM

With those in mind, consider the next molecule.
IC50 measured on CN1CC(CC2CC2)c2[nH]c(-c3ccnc(NC(=O)Cc4ccc(F)cc4)c3)c(-c3ccc(F)cc3)c2C1=O (racemic) = 0.818 µM

###

target: wild-type Epidermal Growth Factor Receptor (EGFR) (Homo sapiens (Human), UniProt P00533); assay: WT-EGFR Kinase Assay (TR-FRET, 2 mM ATP); assay type: biochemical; details: EGFR Wildtyp 2 mM ATP IC50 [mol/l] (median), median or individual measurements
Sequence (P00533 669-1210): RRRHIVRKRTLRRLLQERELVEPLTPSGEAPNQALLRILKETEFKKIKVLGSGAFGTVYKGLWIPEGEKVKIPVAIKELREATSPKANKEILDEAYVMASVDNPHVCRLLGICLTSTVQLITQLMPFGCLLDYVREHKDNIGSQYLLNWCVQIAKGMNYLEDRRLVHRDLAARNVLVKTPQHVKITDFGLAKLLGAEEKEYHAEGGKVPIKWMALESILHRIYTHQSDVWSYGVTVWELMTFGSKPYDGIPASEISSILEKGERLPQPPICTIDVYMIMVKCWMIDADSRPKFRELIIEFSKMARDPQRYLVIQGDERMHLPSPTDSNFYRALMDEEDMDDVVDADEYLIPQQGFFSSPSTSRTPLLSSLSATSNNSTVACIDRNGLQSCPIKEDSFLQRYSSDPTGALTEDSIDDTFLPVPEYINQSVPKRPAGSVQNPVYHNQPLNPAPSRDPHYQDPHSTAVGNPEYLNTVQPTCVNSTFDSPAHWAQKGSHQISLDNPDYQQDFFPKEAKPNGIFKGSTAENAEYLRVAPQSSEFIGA
Documented IC50 across a set of compounds

Compound: CN1CCc2[nH]c(-c3ccnc(NC(=O)C(CC(F)F)c4ccc(F)cc4)c3)c(-c3cccnc3)c2C1=O (single isomer, unassigned) [Example 010]
Endpoint name: IC50
Endpoint value: > 20 µM

Compound: CC(C(=O)Nc1cc(-c2[nH]c3ccn(C)c(=O)c3c2-c2cc(F)cc(F)c2)ccn1)c1ccc(F)cc1 (racemic) [Example 121]
Endpoint name: IC50
Endpoint value: > 5.71 µM

With those in mind, consider the next compound.
Entry CC(C(=O)Nc1cc(-c2[nH]c3ccn(C)c(=O)c3c2-c2cc(F)ccc2F)ccn1)c1ccc(F)cc1 (racemic) [Example 120] , wild-type Epidermal Growth Factor Receptor (EGFR) (Homo sapiens (Human), UniProt P00533) data, IC50 value: > 20 µM

###

Record: pIC50 reported on CSNK1D (Homo sapiens (Human)).
Sequence (P48730 whole entry): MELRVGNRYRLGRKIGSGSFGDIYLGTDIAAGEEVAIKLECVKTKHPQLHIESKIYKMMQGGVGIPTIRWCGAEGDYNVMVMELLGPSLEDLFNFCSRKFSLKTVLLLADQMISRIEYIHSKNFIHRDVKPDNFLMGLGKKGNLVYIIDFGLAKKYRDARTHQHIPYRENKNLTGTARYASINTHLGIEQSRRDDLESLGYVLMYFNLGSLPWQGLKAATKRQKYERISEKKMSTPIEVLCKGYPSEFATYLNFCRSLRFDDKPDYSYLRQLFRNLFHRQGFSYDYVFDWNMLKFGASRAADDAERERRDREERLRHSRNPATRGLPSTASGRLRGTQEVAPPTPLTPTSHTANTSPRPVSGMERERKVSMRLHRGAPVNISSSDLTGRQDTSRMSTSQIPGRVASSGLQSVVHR
On this scale, pIC50 is minus log10 of a concentration expressed in M (mol/L).

Some solved cases for reference:
Compound: Cn1cc(CC(F)(F)F)c2[nH]c(-c3ccnc(NC(=O)C(CC(F)F)c4ccc(F)cc4)c3)c(-c3ccccn3)c2c1=O (racemic) [Example 162]
Assayed system: CSNK1D (Homo sapiens (Human))
pIC50: 7.92

Compound: Cc1cccc(-c2c(-c3ccnc(NC(=O)C(C)c4ccc(F)cc4)c3)[nH]c3c2C(=O)NC(C)(C)C3)c1 (racemic) [Example 88]
Assayed system: CSNK1D (Homo sapiens (Human))
pIC50: 7.96

With those in mind, consider the next compound.
Entry CC1(C)Cc2[nH]c(-c3ccnc(NC(=O)Cc4ccc(F)cc4)c3)c(-c3cccnc3)c2C(=O)N1 [Example 93] , CSNK1D (Homo sapiens (Human)) data, pIC50 value: 8.03

###

biological target: wild-type Epidermal Growth Factor Receptor (EGFR) (Homo sapiens (Human)); experiment: WT-EGFR Kinase Assay (TR-FRET, 2 mM ATP); type: biochemical; conditions: read-out: EGFR Wildtyp 2 mM ATP IC50 [mol/l] (median), median or individual measurements
pIC50: −log10 of the molar value.
Endpoint name: pIC50

Some solved cases for reference:
Compound: O=C(Nc1cc(-c2[nH]c3ccn(C4CC4)c(=O)c3c2-c2ccc(F)cc2)ccn1)C(CC(F)F)c1ccc(F)cc1 (single isomer, unassigned; (+)) [Example 136]
pIC50: < 4.70
//
Compound: Cc1ccc(-c2c(-c3ccnc(NC(=O)Cc4ccc(F)cc4)c3)[nH]c3c2C(=O)NC(C)(C)C3)cc1 [Example 92]
pIC50: < 4.70
//
Compound: COCCN(C)C(=O)c1ccc(CC(=O)Nc2cc(-c3[nH]c4ccn(C)c(=O)c4c3-c3ccc(F)cc3)ccn2)cc1 [Example 143]
pIC50: < 4.70
//
Compound: CC1(C)Cc2[nH]c(-c3ccnc(NC(=O)Cc4ccc(F)cc4)c3)c(-c3cccnc3)c2C(=O)N1 [Example 93]
pIC50: < 4.70
//
Compound: CC1(C)Cc2[nH]c(-c3ccnc(NC(=O)Cc4ccc(F)cc4)c3)c(-c3cccc(F)c3)c2C(=O)N1 [Example 85]
pIC50: < 5.24

With those in mind, consider the next compound.
pIC50 measured on Cc1ccc(-c2c(-c3ccnc(NC(=O)C(C)c4ccc(F)cc4)c3)[nH]c3ccn(C)c(=O)c23)s1 (racemic) [Example 125] = < 5.79
